Tested on: HOP-92
protocol_details: Compound was evaluated for cytotoxicity against non small lung cancer HOP-92 cell line
Format: functional, cell-based
conditions: Homo sapiens
Each record here notes measured IC50.
Number in µM, nothing else.

                              smiles_string  test_target  parameter_measured  value_measured
0  O=C(CCN1CCCCC1)Nc1ccc2sc3ccccc3c(=O)c2n1       HOP-92                IC50            0.41

// IC50 lookup, key: O=C(CN1CCCC1)Nc1ccc2sc3ccccc3c(=O)c2n1
27.3

---

Test system: MCF7
protocol_details: Compound was evaluated for cytotoxicity against breast cancer MCF-7 cell lines
Format: functional, cell-based
conditions: Homo sapiens
parameter_measured: IC50 (µM)
Number in µM, nothing else.

Some solved cases for reference:
>>> df
                              smiles_string  value_measured
0  O=C(CCN1CCCCC1)Nc1ccc2sc3ccccc3c(=O)c2n1            15.9
1    O=C(CN1CCCC1)Nc1ccc2sc3ccccc3c(=O)c2n1            27.2
2  O=C(CCN1CCOCC1)Nc1ccc2sc3ccccc3c(=O)c2n1            49.8
3   O=C(CCN1CCCC1)Nc1ccc2sc3ccccc3c(=O)c2n1              17

// IC50 lookup, key: O=C(CN1CCCCC1)Nc1ccc2sc3ccccc3c(=O)c2n1
19.4

// IC50 lookup, key: CCN(CC)CCC(=O)Nc1ccc2sc3ccccc3c(=O)c2n1
13.3

---

System: HOP-92
protocol_details: Compound was evaluated for cytotoxicity against non small lung cancer HOP-92 cell line
Type: functional, cell-based
conditions: Homo sapiens
Each record here notes measured pIC50.
The read-out pIC50 is expressed as -log10 of concentration in moles per litre.

Some solved cases for reference:
In [3]: df
Out[3]:
                              smiles_string  value_measured
0  O=C(CCN1CCOCC1)Nc1ccc2sc3ccccc3c(=O)c2n1            4.34
1   O=C(CCN1CCCC1)Nc1ccc2sc3ccccc3c(=O)c2n1            4.74

Consider the record given below.
// pIC50 lookup, key: O=C(CN1CCCCC1)Nc1ccc2sc3ccccc3c(=O)c2n1
4.82
